# TEST DESCRIPTION: Reduction of oxidized coenzyme Q10 in Span 80/glycerol/Tween 80/MCT mixture (Example 3, Comparative Example 3)
# REPORTED CONDITIONS: after reaction, oxidized CoQ10 0.1 g + plant extract 1.0 g or compound 0.69 mmol, 80° C., 16 hr, nitrogen atmosphere
MEASURED PROPERTY: weight ratio of reduced coenzyme Q10

INSERT INTO measurements (compound, measured_property, observed_value) VALUES
  ('CC1=C(/C=C/C(C)=C/C=C/C(C)=C/C=O)C(C)(C)CCC1 [retinal]', 'weight ratio of reduced coenzyme Q10', '3%'),
  ('C[N+](C)(C)CC(O)CC(=O)[O-] (stereo not shown) [carnitine]', 'weight ratio of reduced coenzyme Q10', '0%'),
  ('Cc1c(C)c2c(c(C)c1O)CC[C@@](C)(CCC[C@H](C)CCC[C@H](C)CCCC(C)C)O2 [α-tocopherol]', 'weight ratio of reduced coenzyme Q10', '0%');

[Q] Which weight ratio of reduced coenzyme Q10 is reported for this compound? NC(=O)C1=CN([C@@H]2O[C@H](COP(=O)(O)OP(=O)(O)OC[C@H]3O[C@@H](n4cnc5c(N)ncnc54)[C@H](O)[C@@H]3O)[C@@H](O)[C@H]2O)C=CC1 [NADH]
[A] 0%
